- Tested on: Micrococcus luteus
- procedure details: Antibacterial activity against Micrococcus luteus ATCC 4698 after 24 hrs by two-fold serial dilution method
- Assay type: functional
- stated conditions: ATCC 4698, 24 h
measured endpoint: MIC (mg/L)
Note: unit mg/L is implicit; provide only the numeric part.

Tested on Micrococcus luteus: CCCCCCCCN(Cc1nc2ccccc2[nH]1)c1ccc(C)cc1 . Observed MIC: 128

Tested on Micrococcus luteus: Cc1ccc(N(Cc2ccc([N+](=O)[O-])cc2)Cc2nc3ccccc3[nH]2)cc1 . Observed MIC: 128

Tested on Micrococcus luteus: Cc1ccc(N(Cc2cccc(Cl)c2)Cc2nc3ccccc3[nH]2)cc1 . Observed MIC: 128

Tested on Micrococcus luteus: FC(F)(F)c1cc(N(Cc2nc3ccccc3[nH]2)Cc2ccc(Cl)cc2Cl)cc(C(F)(F)F)c1 . Observed MIC: 128

Tested on Micrococcus luteus: CCCCCCCCCCCCCCCCCCN(Cc1nc2ccccc2[nH]1)c1ccc(C)cc1 . Observed MIC: 256
